Listed below: Activity values for each entry.
target entity: NAD-dependent protein deacetylase sirtuin-1 (Homo sapiens)
method description: Activation of full-length GST-tagged recombinant human SIRT1 assessed as enzyme activity obtained without subtraction of intrinsic fluorescence using p53-based untagged peptide as substrate at 50 uM after 30 mins by SIRTainty assay

Here is how some compounds turned out for Activity.
O=C(O)C1=CN(Cc2ccccc2)C=C(C(=O)O)C1c1cccs1; 21%
N#CC1=CN(Cc2ccccc2)C=C(C#N)C1c1ccccc1; 193%
CCOC(=O)C1=CN(Cc2ccccc2)C=C(C(=O)OCC)C1c1ccc(CN2CCN(C)CC2)cc1; 152%

Problem: Given the entry O=C(O)C1=CN(Cc2ccccc2)C=C(C(=O)O)C1c1ccco1 , report its measured Activity.
Solution: 41%

Problem: # repeat for CCOC(=O)C1=CN(C(=O)c2cccc3ccccc23)C=C(C(=O)OCC)C1c1ccccc1
Solution: 179%

Problem: Repeat with CCOC(=O)C1=CN(Cc2ccccc2)C=C(C(=O)OCC)C1c1cccc2ccccc12
Solution: 187%

Problem: Follow-up item: CCOC(=O)C1=CN(C(=O)c2ccccc2)C=C(C(=O)OCC)C1c1cccc(C)c1
Solution: 186%
